target_under_test: human oxytocin receptors (Homo sapiens)
Construct: expressed in transfected cells; host or cells: HEK-293, transient expression; lysed and homogenized cells
Sequence (P30559 whole entry): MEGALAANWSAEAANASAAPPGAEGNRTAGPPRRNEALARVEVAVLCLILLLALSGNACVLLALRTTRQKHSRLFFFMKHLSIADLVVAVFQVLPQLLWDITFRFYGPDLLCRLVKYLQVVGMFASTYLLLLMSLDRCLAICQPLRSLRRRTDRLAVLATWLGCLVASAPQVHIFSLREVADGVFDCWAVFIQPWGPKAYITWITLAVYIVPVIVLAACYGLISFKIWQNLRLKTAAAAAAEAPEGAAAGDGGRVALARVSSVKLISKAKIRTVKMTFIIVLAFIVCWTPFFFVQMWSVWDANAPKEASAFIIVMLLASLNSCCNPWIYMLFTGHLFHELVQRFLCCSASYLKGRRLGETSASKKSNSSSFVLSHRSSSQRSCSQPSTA
measurement_protocol: Oxytocin receptor binding assay
experimental_setup: selectivity quotient
observed_property: Ki(h − OT)/Ki(h − V1b)*

>  <molecule>
CCOc1ncccc1C1(OC(=O)N2CCN(C3CCN(C)CC3)CC2)C(=O)N(S(=O)(=O)c2ccc(OC)cc2OC)c2cc(F)c(F)cc21 (centres unmarked) [Example 51]

>  <measurement>
++ (25-75)

$$$$
>  <molecule>
CCOc1ncccc1C1(NC(=O)N2CCC(C3CCN(C)CC3)CC2)C(=O)N(S(=O)(=O)c2ccc(OC)cc2OC)c2cc(F)c(Cl)cc21 (centres unmarked) [Example 26]

>  <measurement>
+++ (>75)

$$$$
>  <molecule>
CCOc1ncccc1C1(NC(=O)N2CCN(C3CCN(C)CC3)CC2)C(=O)N(S(=O)(=O)c2ccccc2)c2cc(F)c(Cl)cc21 (centres unmarked) [Example 20]

>  <measurement>
++ (25-75)

$$$$
>  <molecule>
CCOc1ncccc1C1(NC(=O)N2CCN(C3CCN(CC)CC3)CC2)C(=O)N(S(=O)(=O)c2ccc(OC)cc2OC)c2cc(F)c(F)cc21 (centres unmarked) [Example 33]

>  <measurement>
+++ (>75)

$$$$

Quote Ki(h − OT)/Ki(h − V1b)* reported for CCOc1ncccc1C1(NC(=O)N2CCN(C3CCN(CC)CC3)CC2)C(=O)N(S(=O)(=O)c2ccc(OC)cc2OC)c2cc(F)c(C#N)cc21 (centres unmarked) [Example 2] please.
+++ (>75)

Quote Ki(h − OT)/Ki(h − V1b)* reported for CCOc1ccccc1C1(NC(=O)N2CCC(N3CCN(CC)CC3)CC2)C(=O)N(S(=O)(=O)c2ccc(OC)cc2OC)c2cc(F)c(C#N)cc21 (centres unmarked) [Example 16] please.
+++ (>75)

Quote Ki(h − OT)/Ki(h − V1b)* reported for CCOc1ncccc1C1(NC(=O)N2CCN(C3CCN(CC)CC3)CC2)C(=O)N(S(=O)(=O)c2ccccc2)c2cc(F)c(Cl)cc21 (centres unmarked) [Example 22] please.
+++ (>75)
